Hey, just so you know, these numbers are from ChEMBL document CHEMBL4219266.

- target.under.test: Genome polyprotein (Coxsackievirus B3 (strain Nancy))
- assay.explanation: Inhibition of human coxsackievirus B3 protease 3C expressed in Escherichia coli (BL21) using fluorogenic-Dabcyl-KEALFQGPPQFE-Edans as substrate after 1 hr by FRET assay
Measured pIC50 by item
Please keep in mind that pIC50 is minus log10 of the molar concentration; only the number is needed.

Task item: I'd like to know its pIC50. The compound in question is Cc1[nH]c2ccccc2c1C1=C(Cl)C(=O)c2ncccc2C1=O
Reply: 6.14

Task item: Param item: O=C1C(Sc2ccccc2)=C(Sc2ccccc2)C(=O)c2[nH]c(-c3ccncc3)nc21
Reply: 6.10

Task item: Param item: O=C1C(Oc2ccc(O)cc2)=C(Oc2ccc(O)cc2)C(=O)c2ncccc21
Reply: 5.92

Task item: Param item: O=C1C(Cl)=C(Cl)C(=O)c2ncccc21
Reply: 6.20

As a next step, examine the compound that follows.
Task item: I'd like to know its pIC50. The compound in question is COc1ccc(OC2=C(Cl)C(=O)c3ccccc3C2=O)c([N+](=O)[O-])c1
Reply: 5.77

---

- target.under.test: Genome polyprotein (Coxsackievirus B3 (strain Nancy), UniProt P03313)
- Sequence (P03313 1541-1723 limits assumed): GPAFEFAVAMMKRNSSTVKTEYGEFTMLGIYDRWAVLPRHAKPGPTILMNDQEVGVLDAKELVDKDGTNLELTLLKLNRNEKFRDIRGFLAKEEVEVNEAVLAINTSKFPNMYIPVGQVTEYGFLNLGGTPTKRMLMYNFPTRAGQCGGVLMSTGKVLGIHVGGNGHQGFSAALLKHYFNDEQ
- assay.explanation: Inhibition of human coxsackievirus B3 protease 3C expressed in Escherichia coli (BL21) using fluorogenic-Dabcyl-KEALFQGPPQFE-Edans as substrate after 1 hr by FRET assay
quantity.kind: pIC50
Please keep in mind that pIC50 is minus log10 of the molar concentration; only the number is needed.

Task item: I'd like to know its pIC50. The compound in question is CC1(C)CC(=O)C2=C(C1)OC(=O)C2(Nc1ccccc1)C(F)(F)F (configuration not stated)
Reply: 5.08

Task item: Param item: Cc1nc2c([nH]1)C(=O)C(Nc1ccc(C(F)(F)F)cc1)=C(Cl)C2=O
Reply: 6.08

Task item: Param item: Cc1[nH]c2ccccc2c1C1=C(O)C(=O)c2ncccc2C1=O
Reply: 5.96

Task item: Param item: O=C1C=CC(=O)N1c1ccc(OC(F)(F)C(F)F)c(N2C(=O)C=CC2=O)c1
Reply: 5.92

Task item: Param item: Cc1nc2c([nH]1)C(=O)C(Cl)=C(Nc1cc(F)cc(F)c1)C2=O
Reply: 6.05

---
Task item: I'd like to know its pIC50. The compound in question is CN(Cc1ccccc1)CC(C(=O)c1ccc(Cl)cc1)n1cnc2ccccc2c1=O (configuration not stated)
Reply: 5.21

Task item: Param item: COC(=O)/C=C/C(=O)[C@@H](NC(=O)OC(C)(C)C)C(C)C
Reply: 5.74

---

Measured pIC50 by item
- target.under.test: Genome polyprotein (Coxsackievirus B3 (strain Nancy))
- assay.explanation: Inhibition of human coxsackievirus B3 protease 3C expressed in Escherichia coli (BL21) using fluorogenic-Dabcyl-KEALFQGPPQFE-Edans as substrate after 1 hr by FRET assay
Please keep in mind that pIC50 is minus log10 of the molar concentration; only the number is needed.

Task item: I'd like to know its pIC50. The molecule in question is Cc1ccc(N/N=C/c2c(O)cc(C)oc2=O)cc1
Reply: 5.27

Task item: Param item: Cc1ccc(NC2=C(Cl)C(=O)c3nc(C)[nH]c3C2=O)cc1
Reply: 6.08

Task item: Param item: O=C1C(Sc2ccc(Cl)cc2)=C(Sc2ccc(Cl)cc2)C(=O)c2[nH]c(-c3ccncc3)nc21
Reply: 6.24

Task item: Param item: O=C(CCN1CCc2ccccc2CC1)c1ccc2c(c1)OCCO2
Reply: 4.95

As a next step, examine the molecule that follows.
Task item: I'd like to know its pIC50. The molecule in question is O=C1C(Cl)=C(Nc2cccc(Cl)c2)C(=O)c2[nH]c(-c3ccncc3)nc21
Reply: 6.26
